Recorded values, source the DeepSol protein solubility set.

MEASUREMENT NOTES: soluble on expression in E. coli; label from the status in PepcDB or PDB records

{"SEQUENCE CHAIN": "GSPGISGGGGGILDSMVEKEEPKEEEKLGKLQYSLDYDFQNNQLLVGIIQAAELPALDMGGTSDPYVKVFLLPDKKKKFETKVHRKTLNPVFNEQFTFKVPYSELGGKTLVMAVYDFDRFSKHDIIGEFKVPMNTVDFGHVTEEWRDLQSAE", "soluble on expression in E. coli": "soluble"}
{"SEQUENCE CHAIN": "MARYYVLDLSEDFRRELRETLAEMVNPVEVHVFLSKSGCETCEDTLRLMKLFEEESPTRNGGKLLKLNVYYRESDSDKFSEFKVERVPTVAFLGGEVRWTGIPAGEEIRALVEVIMRLSEDESGLEDATKEALKSLKGRVHIETIITPSCPYCPYAVLLAHMFAYEAWKQGNPVILSEAVEAYENPDIADKYGVMSVPSIAINGYLVFVGVPYEEDFLDYVKSAAEGRLTVKGPIRAGEAEEL", "soluble on expression in E. coli": "soluble"}
{"SEQUENCE CHAIN": "MSQVQNNSSVSELLASNSGSIKSYRKDEEDPQDRFLKLLVTQMQNQDPLSPMDNAEVTSQMAQISTVSGIDKLNTTLEKLVADSDARRSFEAATMIGRGVLVPGTDMQLENQAAIGGFELAESVDKLTVTVKDSAGITVREIDLGAQAAGVGTFVWDGMANNGNAAADGQYSFALKAIRADKEVSSSALAFGSVSSAQAGKDGALLEVGRLGYVGMDAVKKIF", "soluble on expression in E. coli": "not soluble"}
{"SEQUENCE CHAIN": "MSIIGRFKDIMSANINALLDKAENPEKMVDQYLRNMNSDLAKVKAETAAVMAEEQRAKREYHECQADMEKMESYAMKALQAGNESDARKFLERKTSLESKLSELQAANQIAATNAAQMRKMHDKLVSDIGELEARKNMIKAKWAVAKTQERMNKLGASVSSTSQSMSAFGRMEDKVNKALDQANAMAELNSAPQDDMADLSAKYDTGGSSQVDDELAALKAKMMLDKLEHHHHHH", "soluble on expression in E. coli": "not soluble"}
{"SEQUENCE CHAIN": "MQVLLLEDEPRLGQAVARALAAQGYGVRWARSLGEAREAFLELEPDLMVLDVRLPEDEDGGFRFAKEAREAGYKGPILFLTARDALEDRVQGLDLGGDDYLVKPFHLEELLARVRALLRRASEVKASRVRLGPLEVDLAGRGVYLAGRRVDLSLKEFALLETLLLHPGRVFAPEELAERVFGDPEKVGAVKVYVHYLRQKLFPEVVRTVPGGYRLGHEP", "soluble on expression in E. coli": "soluble"}
{"SEQUENCE CHAIN": "YQPNYFLSIPITNKKITAGIKVLQNSILRQDNRLTKAMVGDGSFHITLLVMQLLNEDEVNIGTDALLELKPFVEEILEGKHLTLPFHGIGTFQGQVGFVKLADGDHVSALLEIAETAKRTFQEKGILAGESRTFKPHLTFMKLSKAPMLWKKGVRKIEPGLYEQFIDHRFGEEILYQIDLCSMLKKKQSNGYYHCESSIVIGEKD", "soluble on expression in E. coli": "soluble"}
{"SEQUENCE CHAIN": "MPTSIQFQRSSTAAEAANATVRNYPHHHQKQVQKVSLTRGMADVPEHVELSHTHVVGPSQCFSVVVQDVEAPVSTVWSILSRFEHPQAYKHFVKSCHVVIGDGREVGSVREVRVVSGLPAAFSLERLEIMDDDRHVISFSVVGGDHRLMNYKSVTTVHESEEDSDGKKRTRVVESYVVDVPAGNDKEETCSFADTIVRCNLQSLAKLAENTSKFS", "soluble on expression in E. coli": "not soluble"}
